Assign pKd to each entry below.
target: T1, recombinant human factor B (human, UniProt P00751 26-764, biotinylated (EZ-link) in the Octet assay only; sites not stated); assay: BLI (ForteBio Octet), biotinylated human factor B on neutravidin sensors, Fab' at 1e-7 M; KD = Kdissoc/Kassoc
T1 construct: also called purified factor B protein
T1 sequence (P00751 26-764): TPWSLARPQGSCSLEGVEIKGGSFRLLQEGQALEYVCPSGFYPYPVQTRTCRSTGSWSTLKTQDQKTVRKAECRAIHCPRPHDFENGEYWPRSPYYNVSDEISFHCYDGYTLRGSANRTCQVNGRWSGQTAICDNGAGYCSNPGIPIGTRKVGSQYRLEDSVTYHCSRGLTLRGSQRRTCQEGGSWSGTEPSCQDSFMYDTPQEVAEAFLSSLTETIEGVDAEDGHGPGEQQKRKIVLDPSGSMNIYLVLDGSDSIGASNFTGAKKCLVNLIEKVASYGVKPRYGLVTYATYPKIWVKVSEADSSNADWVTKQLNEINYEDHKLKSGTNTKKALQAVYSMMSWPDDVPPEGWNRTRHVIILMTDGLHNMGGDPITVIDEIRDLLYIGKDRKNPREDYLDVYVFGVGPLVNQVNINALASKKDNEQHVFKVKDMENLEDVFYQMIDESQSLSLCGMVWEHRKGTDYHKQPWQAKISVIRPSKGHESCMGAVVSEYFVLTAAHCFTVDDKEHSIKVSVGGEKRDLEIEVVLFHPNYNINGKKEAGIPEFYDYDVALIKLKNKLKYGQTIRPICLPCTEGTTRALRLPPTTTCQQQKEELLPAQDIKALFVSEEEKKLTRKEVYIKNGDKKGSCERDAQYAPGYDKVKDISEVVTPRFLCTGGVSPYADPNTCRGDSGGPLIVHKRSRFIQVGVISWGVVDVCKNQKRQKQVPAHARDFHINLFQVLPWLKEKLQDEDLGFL
To interpret pKd, take it as minus log10 of a concentration measured in moles per litre.

[ask] Fill in pKd for record TA102-4 Fab' (Fab, V domains shown, Humaneered Fab' expressed in E. coli) VH: QVQLVQSGAEVKKPGASVKVSCKASGYSFTDYYMTWVRQAPGQGLEWMGWINPNSGGTKYAQKFQGRVTMTRDTSISTAYMELSRLRSDDTAVYYCARGYYANSAWFAYWGQGTLVTVSS VL: DIVMTQSPDSLAVSLGERATINCKSSQSVLNSRNKKNYLAWYQQKPGQPPKLLIYWASTRESGVPDRFSGSGSGTDFTLTISSLQAEDVAVYYCKQVYNLPWTFGQGTKLEIK
[reply] 8.27

[ask] Fill in pKd for record TA10 reference Fab' (Fab, V domains shown) VH: EVQLQQSGPELVKPGASVKIPCKASGYTFTDYNMDWVKQSHGKSLEWIGDINPNNGGTIYNQKFKGKATLTVDKSSSTAYMELRSLTSEDTAVYYCARGYYSNSAWFAYWGQGTLVTVSS VL: DIVMSQSPSSLAVSAGEKVTMSCKSSQSLLNSRTRKNYLAWYQQKPGQSPKLLIYWASTRESGVPDRFTGSGSGTDFTLTISSVQAEDLAVYYCKQSYNLPWTFGQGTKLEIK
[reply] 8.18

[ask] Fill in pKd for record TA101-1 Fab' (Fab, V domains shown, Humaneered Fab' expressed in E. coli) VH: QVQLVQSGAEVKKPGASVKVSCKASGYSFTDYYMTWVRQAPGQGLEWMGWINPNSGGTKYAQKFQGRVTMTRDTSISTAYMELSRLRSDDTAVYYCARGYYANSAWFAYWGQGTLVTVSS VL: DIVMTQSPDSLAVSLGERATINCKSSQSLLNSSTSKNYLAWYQQKPGQPPKLLIYWASTRESGVPDRFSGSGSGTDFTLTISSLQAEDVAVYYCKQVYNLPWTFGQGTKLEIK
[reply] 8.34

[ask] Fill in pKd for record TA103-2 Fab' (Fab, V domains shown, Humaneered Fab' expressed in E. coli) VH: QVQLVQSGAEVKKPGASVKVSCKASGYSFTDYYMTWVRQAPGQGLEWMGWINPNSGGTKYAQKFQGRVTMTRDTSISTAYMELSRLRSDDTAVYYCARGYYANSAWFAYWGQGTLVTVSS VL: DIVMTQSPDSLAVSLGERATINCKSSQSLLNSRTSKNYLAWYQQKPGQPPKLLIYWASTRESGVPDRFSGSGSGTDFTLTISSLQAEDVAVYYCKQVYNLPWTFGQGTKLEIK
[reply] 8.43
